The measured values listed here are drawn from the supplement of paper PMC6555819.

For each record, write down the corresponding PBM binding z-score.
# Tested on: RARb:RXRa (NR concentration 270 nM, RXRa partner concentration 90 nM)
# experimentDescription: PBM binding z-score (relative to random genomic background probes); higher = stronger binding; sequences stand for … in GC…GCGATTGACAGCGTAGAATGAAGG
Lab note: jot the number down without any unit.

Short answer for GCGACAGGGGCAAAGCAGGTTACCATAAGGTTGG : PBM binding z-score was 1.47

PBM binding z-score in this record for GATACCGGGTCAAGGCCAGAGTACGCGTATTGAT : 3.9

Value of PBM binding z-score reported for the sequence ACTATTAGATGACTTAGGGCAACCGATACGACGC is 0.885

PBM binding z-score measured on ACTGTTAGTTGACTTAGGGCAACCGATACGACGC = 1.04

Noted for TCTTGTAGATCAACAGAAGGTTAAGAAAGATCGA : its PBM binding z-score reads 0.701

Looking up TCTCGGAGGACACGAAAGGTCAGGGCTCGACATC , I see its PBM binding z-score listed as 4.4

Memo: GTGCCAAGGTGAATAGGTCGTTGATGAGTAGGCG , reported PBM binding z-score: 2.09

The sequence listed as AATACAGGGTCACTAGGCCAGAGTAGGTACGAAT shows PBM binding z-score equal to 4.39

// field: PBM binding z-score; key: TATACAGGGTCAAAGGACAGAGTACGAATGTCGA ; value = 4.55

Recorded PBM binding z-score (sequence CCTAATTGGTCAGGAGGTCACACACCGGATATGA ): 3.87

Documented PBM binding z-score of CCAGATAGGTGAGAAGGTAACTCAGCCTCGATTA : 0.76

Lookup result for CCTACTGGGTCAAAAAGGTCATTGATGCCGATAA ; measured PBM binding z-score: 4.66

The value of PBM binding z-score measured for the sequence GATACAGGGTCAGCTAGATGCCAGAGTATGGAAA turned out to be 3.98

Input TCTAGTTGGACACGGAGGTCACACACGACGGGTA . Output PBM binding z-score: 3.45

Reported PBM binding z-score for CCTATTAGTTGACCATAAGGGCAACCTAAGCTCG was 1.57

The sequence listed as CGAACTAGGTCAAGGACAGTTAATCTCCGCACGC has a reported PBM binding z-score of 3.76

response.value for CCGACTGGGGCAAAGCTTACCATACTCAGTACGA (field: PBM binding z-score) = 0.229

The measured PBM binding z-score associated with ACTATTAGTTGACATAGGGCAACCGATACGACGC reads 1.19

The reported PBM binding z-score of the sequence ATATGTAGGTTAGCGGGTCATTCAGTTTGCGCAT was 2.31

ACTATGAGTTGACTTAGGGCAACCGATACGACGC yielded PBM binding z-score of 0.974

###

Consider the following sequences; for each one, report its PBM binding z-score.
# Tested on: PXR:RXRa (NR concentration 270 nM, RXRa partner concentration 90 nM)
# experimentDescription: PBM binding z-score (relative to random genomic background probes); higher = stronger binding; sequences stand for … in GC…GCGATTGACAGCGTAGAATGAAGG
Please state the value as a number alone, without comment.

Short answer for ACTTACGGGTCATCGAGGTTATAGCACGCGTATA : PBM binding z-score was 5.14

Kindly note the recorded PBM binding z-score for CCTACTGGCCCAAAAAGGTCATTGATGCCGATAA , which is 4.99

Just so you know, measured PBM binding z-score for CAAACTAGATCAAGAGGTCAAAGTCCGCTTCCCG came out at 5.07

PBM binding z-score recorded for this sequence, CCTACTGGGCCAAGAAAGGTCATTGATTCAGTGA , is 5.1

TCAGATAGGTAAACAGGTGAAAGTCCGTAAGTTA yielded PBM binding z-score of 0.684

PBM binding z-score reading for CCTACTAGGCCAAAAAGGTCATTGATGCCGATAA : 4.88
